PROTOCOL_DESCRIPTION: Powder dissolution profiling (intrinsic dissolution rate and apparent solubility) in PhB 6.5 and FeSSIF pH 6.5
APPLIED_CONDITIONS: 37 °C, pH 6.5, fessif, thermodynamic from solid, Apparent Solubility Assay 1 + 2, FeSSIF pH 6.5, 37° C.; assays 1 and 2 combined
ENDPOINT_LABEL: solubility (mg/mL)

COc1cc([C@@H]2c3cc4c(cc3[C@H](O)[C@H]3COC(=O)[C@@H]23)OCO4)cc(OC)c1OC	0.0126

###

PROTOCOL_DESCRIPTION: Powder dissolution profiling (intrinsic dissolution rate and apparent solubility) in PhB 6.5 and FeSSIF pH 6.5
APPLIED_CONDITIONS: 37 °C, pH 6.5, fessif, thermodynamic from solid, Apparent Solubility assay 2, FeSSIF pH 6.5, 37° C.; assay time 25 hours; triplicate
ENDPOINT_LABEL: solubility at 25 h (µg/mL)

COc1cc([C@@H]2c3cc4c(cc3[C@H](O)[C@H]3COC(=O)[C@@H]23)OCO4)cc(OC)c1OC	12.2

###

PROTOCOL_DESCRIPTION: Powder dissolution profiling (intrinsic dissolution rate and apparent solubility) in PhB 6.5 and FeSSIF pH 6.5
APPLIED_CONDITIONS: 37 °C, pH 6.5, aqueous buffer, thermodynamic from solid, Apparent Solubility Assay 1 + 2, PhB 6.5, 37° C.; assays 1 and 2 combined; mean ± SD
ENDPOINT_LABEL: solubility (µg/mL)

COc1cc([C@@H]2c3cc4c(cc3[C@H](O)[C@H]3COC(=O)[C@@H]23)OCO4)cc(OC)c1OC	5.85
